- Assay target: human CB2 receptor (Homo sapiens)
- Construct: expressed in transfected cells; host or cells: human embryonic kidney (HEK) cells, Semliki Forest Virus system, membrane preparations
- Assay text: CB2 receptor affinity ([3H]-CP-55,940 displacement, HEK cell membranes)
- Type: binding
- Condition notes: displacement of [3H]-CP-55,940 at 10 μM
Hi there, I'd appreciate the recorded inhibition at 10 µM for every entry that follows.
Report the figure along with its unit, number first.

Sample answers from the record:
[[record]]
molecular_string = "COC[C@@H]1CCCN1NC(=O)c1cnc(OCC(F)(F)F)c(C2CCCC2)c1"
measured_endpoint = "inhibition at 10 µM"
assay_value = "3%"

[[record]]
molecular_string = "O=C(NN1CCC(O)CC1)c1cnc(OC2CCC2)c(-c2ccc(Cl)cc2)c1"
measured_endpoint = "inhibition at 10 µM"
assay_value = "-8%"

[[record]]
molecular_string = "CN(CCCO)NC(=O)c1cnc(OCC(F)(F)F)c(-c2ccc(Cl)cc2)c1"
measured_endpoint = "inhibition at 10 µM"
assay_value = "-9%"

[[record]]
molecular_string = "CN1CCN(NC(=O)c2cnc(OCC(F)(F)F)c(-c3ccc(Cl)cc3)c2)CC1=O"
measured_endpoint = "inhibition at 10 µM"
assay_value = "-11%"

[[record]]
molecular_string = "C[C@@H]1CN(NC(=O)c2cnc(OCC(F)(F)F)c(C3CC3)c2)C[C@H](C)O1"
measured_endpoint = "inhibition at 10 µM"
assay_value = "5%"


Parameter requested: inhibition at 10 µM. Apply to each item below.
1. CC(C)(C)OC(=O)N1CCC(c2cc(C(=O)NN3CCC(CCO)CC3)cnc2OCC(F)(F)F)CC1
2. N#Cc1ccc(-c2cc(C(=O)NN3CCOCC3)cnc2OCC(F)(F)F)cc1
3. CN(NC(=O)c1cnc(OCC(F)(F)F)c(C2CCOCC2)c1)c1ccccc1
4. O=C(NN1CCC(O)CC1)c1cnc(OCC2CC2)c(-c2ccc(Cl)cc2)c1
5. O=C(NN1CCC(O)CC1)c1cnc(OCC(F)(F)F)c(C2CCCCC2)c1
6. O=C(NN1CCC(CCO)CC1)c1cnc(OCC(F)(F)F)c(-c2ccc(Cl)cc2)c1

Completion:
["-5%", "-8%", "25%", "2%", "6%", "-8%"]

Parameter requested: inhibition at 10 µM. Apply to each item below.
1. CN(NC(=O)c1cnc(OCC(F)(F)F)c(-c2cccc(F)c2)c1)c1ccccc1
2. CN(NC(=O)c1cnc(OC2CCC2)c(-c2ccco2)c1)c1ccncc1
3. CC(C)(C)OC(=O)N1CCCN1C(=O)c1cnc(OCC(F)(F)F)c(-c2ccc(Cl)cc2)c1
4. CN(NC(=O)c1cnc(OC2CCC2)c(-c2ccco2)c1)c1ccc(Cl)nn1
5. N#Cc1ccc(-c2cc(C(=O)NN3CCC(O)CC3)cnc2OCC(F)(F)F)cc1

Completion:
1: 16%; 2: 19%; 3: 24%; 4: -4%; 5: -4%

Prompt: May I ask what inhibition at 10 µM has been recorded for CN(NC(=O)c1cnc(OC2CCC2)c(C2CC2)c1)c1ccc(F)cc1 ?
Completion: 7%

* * *

Hi there, I'd appreciate the recorded EC50 for every entry that follows.
- Tested on: ABCA1 protein
- Assay text: Detection of upregulation of ABCA1 protein in cells (ApoA-I binding, high content imaging)
- Assay type: cell-based
- Condition notes: THP-1 macrophage cells, 24 hrs compound incubation; read-out: EC50 [μM] ABCA1 protein increasing efficacy

[[record]]
molecular_string = "N#Cc1ccc(-c2cc(C(=O)NN3CCC(O)CC3)cnc2OCC(F)(F)F)cc1"
measured_endpoint = "EC50"
assay_value = "1.86 µM"


Parameter requested: EC50. Apply to each item below.
1. O=C(NN1CCC(O)CC1)c1cnc(OC2CCC2)c(-c2ccc(Cl)cc2)c1
2. O=C(NNc1ccc(F)cc1)c1cnc(OC2CCC2)c(-c2ccco2)c1
3. O=C(NN1CCC(O)CC1)c1cnc(OCC(F)(F)F)c(C2CCCCC2)c1

Completion:
0.18 µM
0.8 µM
1.48 µM

* * *

- Assay target: human CB2 receptor (Homo sapiens, UniProt P34972)
- Construct: expressed in transfected cells; host or cells: human embryonic kidney (HEK) cells, Semliki Forest Virus system, membrane preparations
- Sequence (P34972 whole entry): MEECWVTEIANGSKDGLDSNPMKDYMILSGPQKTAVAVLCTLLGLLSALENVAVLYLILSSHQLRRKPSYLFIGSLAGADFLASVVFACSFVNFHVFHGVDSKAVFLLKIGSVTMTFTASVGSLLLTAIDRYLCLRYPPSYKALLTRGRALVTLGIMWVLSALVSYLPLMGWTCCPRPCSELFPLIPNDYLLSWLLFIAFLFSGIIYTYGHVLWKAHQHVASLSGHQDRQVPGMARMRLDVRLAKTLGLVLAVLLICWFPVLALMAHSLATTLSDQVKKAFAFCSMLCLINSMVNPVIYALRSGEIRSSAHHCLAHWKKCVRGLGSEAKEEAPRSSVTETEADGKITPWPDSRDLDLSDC
- Assay text: CB2 receptor affinity ([3H]-CP-55,940 displacement, HEK cell membranes)
- Assay type: binding
- Condition notes: displacement of [3H]-CP-55,940 at 10 μM
Hi there, I'd appreciate the recorded inhibition at 10 µM for every entry that follows.
One number for each entry, in %.

[[record]]
molecular_string = "O=C(NN1CCC(CO)CC1)c1cnc(OCC(F)(F)F)c(-c2ccc(Cl)cc2)c1"
measured_endpoint = "inhibition at 10 µM"
assay_value = -17

[[record]]
molecular_string = "O=C(NN1CCOCC1)c1cnc(OCC(F)(F)F)c(-c2ccc(Cl)cc2)c1"
measured_endpoint = "inhibition at 10 µM"
assay_value = 8

[[record]]
molecular_string = "COC[C@@H]1CCCN1NC(=O)c1cnc(OCC(F)(F)F)c(C2CC2)c1"
measured_endpoint = "inhibition at 10 µM"
assay_value = 3

[[record]]
molecular_string = "CS(=O)(=O)N1CCN(NC(=O)c2cnc(OCC(F)(F)F)c(-c3ccc(Cl)cc3)c2)CC1"
measured_endpoint = "inhibition at 10 µM"
assay_value = 1

[[record]]
molecular_string = "CN(NC(=O)c1cnc(OCC(F)(F)F)c(C2CC2)c1)c1ccc(F)cc1"
measured_endpoint = "inhibition at 10 µM"
assay_value = 8


Parameter requested: inhibition at 10 µM. Apply to each item below.
1. CN(NC(=O)c1cnc(OCC(F)(F)F)c(C2CC2)c1)c1ccccc1
2. COC[C@@H]1CCCN1NC(=O)c1cnc(OCC(F)(F)F)c(C2CCCCC2)c1
3. O=C(NN1CCC(O)CC1)c1cnc(OC2CCC2)c(-c2ccco2)c1

Completion:
1: 13; 2: 17; 3: 6

Parameter requested: inhibition at 10 µM. Apply to each item below.
1. CN(NC(=O)c1cnc(OCC(F)(F)F)c(C2CCCC2)c1)c1ccc(Cl)nn1
2. CN(NC(=O)c1cnc(OCC(F)(F)F)c(C2CCCC2)c1)c1ccccc1
3. CN(NC(=O)c1cnc(OCC2CC2)c(C2CC2)c1)c1ccccc1
4. O=C(NN1CCS(=O)(=O)CC1)c1cnc(OCC(F)(F)F)c(C2CC2)c1
5. O=C(NN1CCN(CCO)CC1)c1cnc(OCC(F)(F)F)c(-c2ccc(Cl)cc2)c1

Completion:
[-5, 18, 39, -14, -18]

* * *

Hi there, I'd appreciate the recorded EC50 for every entry that follows.
- System: ABCA1 protein
- Assay text: Detection of upregulation of ABCA1 protein in cells (ApoA-I binding, high content imaging)
- Format: cell-based
- Condition notes: THP-1 macrophage cells, 24 hrs compound incubation; read-out: EC50 [μM] ABCA1 protein increasing efficacy

Sample answers from the record:
[[record]]
molecule = "O=C(NN1CCC(O)CC1)c1cnc(OCC2CC2)c(-c2ccc(Cl)cc2)c1 [Example 10]"
measured_endpoint = "EC50"
assay_value = "1.03 µM"

[[record]]
molecule = "O=C(NN1CCC(O)CC1)c1cnc(OC2CCC2)c(-c2ccco2)c1 [Example 50]"
measured_endpoint = "EC50"
assay_value = "0.16 µM"


Parameter requested: EC50. Apply to each item below.
1. CN1CCN(NC(=O)c2cnc(OCC(F)(F)F)c(-c3ccc(Cl)cc3)c2)CC1=O [Example 27]
2. CN(NC(=O)c1cnc(OC2CCC2)c(-c2ccco2)c1)c1ccncc1 [Example 52]
3. O=C(NN1CCOCC1)c1cnc(OCC(F)(F)F)c(C2CCCCC2)c1 [Example 19]
4. CN(NC(=O)c1cnc(OC2CCC2)c(-c2ccco2)c1)c1ccc(Cl)nn1 [Example 51]

Completion:
["2.39 µM", "5.8 µM", "5.39 µM", "0.47 µM"]

Parameter requested: EC50. Apply to each item below.
1. CN(NC(=O)c1cnc(OCC(F)(F)F)c(C2CCCCC2)c1)c1ccc(Cl)nn1 [Example 22]
2. CN(NC(=O)c1cnc(OCC(F)(F)F)c(C2CCCC2)c1)c1ccc(Cl)nn1 [Example 16]
3. O=C(NNc1ccc(F)cc1)c1cnc(OCC2CC2)c(C2CC2)c1 [Example 42]

Completion:
0.98 µM
1.17 µM
3.2 µM

* * *

- Assay target: human CB2 receptor (Homo sapiens, UniProt P34972)
- Construct: expressed in transfected cells; host or cells: human embryonic kidney (HEK) cells, Semliki Forest Virus system, membrane preparations
- Assay text: CB2 receptor affinity ([3H]-CP-55,940 displacement, HEK cell membranes)
- Type: binding
- Condition notes: displacement of [3H]-CP-55,940 at 10 μM
- Description: The affinity of the compounds of the invention for cannabinoid CB2 receptors was determined using membrane preparations of human embryonic kidney (HEK) cells in which the human CB2 receptor is transiently transfected using a Semliki Forest Virus system in conjunction with [^3H]-CP-55,940 as radioligand. […] Radioactivity on the filter was measured by scintillation counting. […]
Measured endpoint: inhibition at 10 µM (%)
Answers are plain numbers, in %.

Sample answers from the record:
[[record]]
molecule = "CN(NC(=O)c1cnc(OCC2CC2)c(C2CC2)c1)c1ccc(C#N)cc1 [Example 53]"
assay_target = "human CB2 receptor (Homo sapiens, UniProt P34972)"
assay_value = 48

[[record]]
molecule = "CN(NC(=O)c1cnc(OCC(F)(F)F)c(-c2ccc(Cl)cc2)c1)c1ccc(Cl)nn1 [Example 8]"
assay_target = "human CB2 receptor (Homo sapiens, UniProt P34972)"
assay_value = 18

[[record]]
molecule = "O=C(NN1CCC(O)CC1)c1cnc(OCC(F)(F)F)c(-c2ccc(Cl)cc2)c1 [Example 6]"
assay_target = "human CB2 receptor (Homo sapiens, UniProt P34972)"
assay_value = -9

[[record]]
molecule = "O=C(NN1CCOCC1)c1cnc(OCC(F)(F)F)c(C2CCCC2)c1 [Example 14]"
assay_target = "human CB2 receptor (Homo sapiens, UniProt P34972)"
assay_value = 9


Now consider the entry below.
Prompt: May I ask what inhibition at 10 µM has been recorded for NNC(=O)c1cnc(OCC(F)(F)F)c(-c2ccc(Cl)c(F)c2)c1 [Example 9] ?
Completion: -2

Attribution: patent US8648099B2
